Recorded values, source paper PMC9454456.

# procedure.text: in vivo
# Set-up: species or system mice
# conditions: mouse, iv, 3.4 MBq, total radioactivity, Biodistribution, Stomach
observation.type: tissue uptake at 5 min (%ID/g)
One number for each entry, in %ID/g.

input: Find the recorded tissue uptake at 5 min belonging to CC(=O)NC(CCCCNC(=O)CN1CCN(CC(=O)O)CCN(CC(=O)O)CCN(CC(=O)O)CC1)C(=O)N1CCCC1C(=O)N(C)C(CCCNC(=N)N)C(=O)NC(CCCNC(=N)N)C(=O)N1CCCC1C(=O)NC(Cc1ccc(O)cc1)C(=O)NC(C(=O)NC(CC(C)C)C(=O)O)C(C)(C)C (stereo not shown) [^68Ga-DOTA-NT-20.3, metal not drawn] and report it.
output: 3.56

----------
# procedure.text: in vivo
# Design: species or system mice
# conditions: mouse, iv, 3.4 MBq, total radioactivity, Biodistribution, Kidney
observation.type: tissue uptake at 0.5 h (%ID/g)
Numbers only, in %ID/g.

input: Which tissue uptake at 0.5 h value belongs to CC(=O)NC(CCCCNC(=O)CN1CCN(CC(=O)O)CCN(CC(=O)O)CCN(CC(=O)O)CC1)C(=O)N1CCCC1C(=O)N(C)C(CCCNC(=N)N)C(=O)NC(CCCNC(=N)N)C(=O)N1CCCC1C(=O)NC(Cc1ccc(O)cc1)C(=O)NC(C(=O)NC(CC(C)C)C(=O)O)C(C)(C)C (stereo not shown) [^68Ga-DOTA-NT-20.3, metal not drawn] ?
output: 23.1

----------
# procedure.text: in vivo
# Set-up: species or system mice
# conditions: mouse, iv, 3.4 MBq, total radioactivity, Biodistribution, Muscle
observation.type: tissue uptake at 0.25 h

input: Tell me the measured tissue uptake at 0.25 h of CC(=O)NC(CCCCNC(=O)CN1CCN(CC(=O)O)CCN(CC(=O)O)CCN(CC(=O)O)CC1)C(=O)N1CCCC1C(=O)N(C)C(CCCNC(=N)N)C(=O)NC(CCCNC(=N)N)C(=O)N1CCCC1C(=O)NC(Cc1ccc(O)cc1)C(=O)NC(C(=O)NC(CC(C)C)C(=O)O)C(C)(C)C (stereo not shown) [^68Ga-DOTA-NT-20.3, metal not drawn] , please.
output: 1.44 %ID/g

----------
# procedure.text: in vivo
# Design: species or system mice
# conditions: mouse, iv, 3.4 MBq, total radioactivity, Biodistribution, Lung
observation.type: tissue uptake at 1 h (%ID/g)
One number for each entry, in %ID/g.

input: What measured tissue uptake at 1 h goes with CC(=O)NC(CCCCNC(=O)CN1CCN(CC(=O)O)CCN(CC(=O)O)CCN(CC(=O)O)CC1)C(=O)N1CCCC1C(=O)N(C)C(CCCNC(=N)N)C(=O)NC(CCCNC(=N)N)C(=O)N1CCCC1C(=O)NC(Cc1ccc(O)cc1)C(=O)NC(C(=O)NC(CC(C)C)C(=O)O)C(C)(C)C (stereo not shown) [^68Ga-DOTA-NT-20.3, metal not drawn] ?
output: 1.2

----------
# procedure.text: in vivo
# Set-up: species or system mice
# conditions: mouse, iv, 3.4 MBq, total radioactivity, Biodistribution, Tumor
observation.type: tissue uptake at 2 h (%ID/g)
Numbers only, in %ID/g.

input: Need tissue uptake at 2 h, item CC(=O)NC(CCCCNC(=O)CN1CCN(CC(=O)O)CCN(CC(=O)O)CCN(CC(=O)O)CC1)C(=O)N1CCCC1C(=O)N(C)C(CCCNC(=N)N)C(=O)NC(CCCNC(=N)N)C(=O)N1CCCC1C(=O)NC(Cc1ccc(O)cc1)C(=O)NC(C(=O)NC(CC(C)C)C(=O)O)C(C)(C)C (stereo not shown) [^68Ga-DOTA-NT-20.3, metal not drawn]
output: 3.74

----------
# procedure.text: in vivo
# Parameters: species or system mice
# conditions: mouse, iv, 3.4 MBq, total radioactivity, Biodistribution, Fat
observation.type: tissue uptake at 0.5 h (%ID/g)
Answers are plain numbers, in %ID/g.

input: What value of tissue uptake at 0.5 h has been reported for the following compound? CC(=O)NC(CCCCNC(=O)CN1CCN(CC(=O)O)CCN(CC(=O)O)CCN(CC(=O)O)CC1)C(=O)N1CCCC1C(=O)N(C)C(CCCNC(=N)N)C(=O)NC(CCCNC(=N)N)C(=O)N1CCCC1C(=O)NC(Cc1ccc(O)cc1)C(=O)NC(C(=O)NC(CC(C)C)C(=O)O)C(C)(C)C (stereo not shown) [^68Ga-DOTA-NT-20.3, metal not drawn]
output: 0.62

----------
# procedure.text: in vivo
# Set-up: species or system mice
# conditions: mouse, iv, 3.4 MBq, total radioactivity, Biodistribution, Blood
observation.type: tissue uptake at 2 h (%ID/g)
One number for each entry, in %ID/g.

input: Requested read-out: tissue uptake at 2 h. Entry: CC(=O)NC(CCCCNC(=O)CN1CCN(CC(=O)O)CCN(CC(=O)O)CCN(CC(=O)O)CC1)C(=O)N1CCCC1C(=O)N(C)C(CCCNC(=N)N)C(=O)NC(CCCNC(=N)N)C(=O)N1CCCC1C(=O)NC(Cc1ccc(O)cc1)C(=O)NC(C(=O)NC(CC(C)C)C(=O)O)C(C)(C)C (stereo not shown) [^68Ga-DOTA-NT-20.3, metal not drawn]
output: 0.43

----------
# procedure.text: in vivo
# Set-up: species or system mice
# conditions: mouse, iv, 3.4 MBq, total radioactivity, Biodistribution, Tumor
observation.type: tissue uptake at 5 min (%ID/g)
Numbers only, in %ID/g.

input: What does the record list as tissue uptake at 5 min for CC(=O)NC(CCCCNC(=O)CN1CCN(CC(=O)O)CCN(CC(=O)O)CCN(CC(=O)O)CC1)C(=O)N1CCCC1C(=O)N(C)C(CCCNC(=N)N)C(=O)NC(CCCNC(=N)N)C(=O)N1CCCC1C(=O)NC(Cc1ccc(O)cc1)C(=O)NC(C(=O)NC(CC(C)C)C(=O)O)C(C)(C)C (stereo not shown) [^68Ga-DOTA-NT-20.3, metal not drawn] ?
output: 2.81

----------
# procedure.text: in vivo
# Parameters: species or system mice
# conditions: mouse, iv, 3.4 MBq, total radioactivity, Biodistribution, Tumor
observation.type: tissue uptake at 0.25 h (%ID/g)
Answers are plain numbers, in %ID/g.

input: Recorded tissue uptake at 0.25 h for CC(=O)NC(CCCCNC(=O)CN1CCN(CC(=O)O)CCN(CC(=O)O)CCN(CC(=O)O)CC1)C(=O)N1CCCC1C(=O)N(C)C(CCCNC(=N)N)C(=O)NC(CCCNC(=N)N)C(=O)N1CCCC1C(=O)NC(Cc1ccc(O)cc1)C(=O)NC(C(=O)NC(CC(C)C)C(=O)O)C(C)(C)C (stereo not shown) [^68Ga-DOTA-NT-20.3, metal not drawn] , please?
output: 3.93

----------
# procedure.text: in vivo
# Set-up: species or system mice
# conditions: mouse, iv, 3.4 MBq, total radioactivity, Biodistribution, Heart
observation.type: tissue uptake at 0.5 h (%ID/g)
Numbers only, in %ID/g.

input: Could you share which tissue uptake at 0.5 h value was measured for CC(=O)NC(CCCCNC(=O)CN1CCN(CC(=O)O)CCN(CC(=O)O)CCN(CC(=O)O)CC1)C(=O)N1CCCC1C(=O)N(C)C(CCCNC(=N)N)C(=O)NC(CCCNC(=N)N)C(=O)N1CCCC1C(=O)NC(Cc1ccc(O)cc1)C(=O)NC(C(=O)NC(CC(C)C)C(=O)O)C(C)(C)C (stereo not shown) [^68Ga-DOTA-NT-20.3, metal not drawn] ?
output: 2.78

----------
# procedure.text: in vivo
# Set-up: species or system mice
# conditions: mouse, iv, 3.4 MBq, total radioactivity, Biodistribution, Testis
observation.type: tissue uptake at 2 h (%ID/g)
Give bare numbers, in %ID/g.

input: I have this compound here, CC(=O)NC(CCCCNC(=O)CN1CCN(CC(=O)O)CCN(CC(=O)O)CCN(CC(=O)O)CC1)C(=O)N1CCCC1C(=O)N(C)C(CCCNC(=N)N)C(=O)NC(CCCNC(=N)N)C(=O)N1CCCC1C(=O)NC(Cc1ccc(O)cc1)C(=O)NC(C(=O)NC(CC(C)C)C(=O)O)C(C)(C)C (stereo not shown) [^68Ga-DOTA-NT-20.3, metal not drawn] , and I need its recorded tissue uptake at 2 h.
output: 0.31

----------
# procedure.text: in vivo
# Parameters: species or system mice
# conditions: mouse, iv, 3.4 MBq, total radioactivity, Biodistribution, Blood
observation.type: tissue uptake at 0.5 h (%ID/g)
Give bare numbers, in %ID/g.

input: Item under review: CC(=O)NC(CCCCNC(=O)CN1CCN(CC(=O)O)CCN(CC(=O)O)CCN(CC(=O)O)CC1)C(=O)N1CCCC1C(=O)N(C)C(CCCNC(=N)N)C(=O)NC(CCCNC(=N)N)C(=O)N1CCCC1C(=O)NC(Cc1ccc(O)cc1)C(=O)NC(C(=O)NC(CC(C)C)C(=O)O)C(C)(C)C (stereo not shown) [^68Ga-DOTA-NT-20.3, metal not drawn] . Reported tissue uptake at 0.5 h?
output: 2.56
